Measured Cell Death (MEC-1, 2 h), listed per entry for reference.
- System: MEC-1 cells
- Method notes: MEC-1 cell death (PCD) after 2 h peptide treatment
- Type: cell-based
- Conditions: Table 4
Measured parameter: Cell Death (MEC-1, 2 h) (%)

CSCC[C@H](NC(=O)[C@@H](NC(=O)[C@@H](NC(=O)[C@H](Cc1ccc(O)cc1)NC(=O)[C@H](Cc1ccccc1)N(C)C(=O)[C@H](CCCNC(=N)N)NC(=O)[C@H](N)CCCCN)C(C)C)C(C)C)C(=O)N[C@@H](Cc1c[nH]c2ccccc12)C(=O)N[C@@H](CCCCN)C(=O)N[C@H](CCCCN)C(=O)O [PKT10, H-(D)K R ψ(CONMe)F Y V V M W K (D)K-OH]
0
CSCC[C@H](NC(=O)[C@@H](NC(=O)[C@H](C(C)C)N(C)C(=O)[C@H](Cc1ccc(O)cc1)NC(=O)[C@H](Cc1ccccc1)NC(=O)[C@H](CCCNC(=N)N)NC(=O)[C@H](N)CCCCN)C(C)C)C(=O)N[C@@H](Cc1c[nH]c2ccccc12)C(=O)N[C@@H](CCCCN)C(=O)N[C@H](CCCCN)C(=O)O [PKT8, H-(D)K R F Y ψ(CONMe)V V M W K (D)K-OH]
0
CSCC[C@H](NC(=O)[C@@H](NC(=O)[C@@H](NC(=O)[C@H](Cc1ccc(O)cc1)NC(=O)[C@H](Cc1ccccc1)NC(=O)[C@H](CCCNC(=N)N)NC(=O)[C@H](N)CCCCN)C(C)C)C(C)C)C(=O)N[C@@H](Cc1c[nH]c2ccccc12)C(=O)N[C@@H](CCCCN)C(=O)N[C@H](CCCCN)C(=O)O [PKHB1, reference compound]
78
CSCC[C@H](NC(=O)[C@H](C(C)C)N(C)C(=O)[C@@H](NC(=O)[C@H](Cc1ccc(O)cc1)NC(=O)[C@H](Cc1ccccc1)NC(=O)[C@H](CCCNC(=N)N)NC(=O)[C@H](N)CCCCN)C(C)C)C(=O)N[C@@H](Cc1c[nH]c2ccccc12)C(=O)N[C@@H](CCCCN)C(=O)N[C@H](CCCCN)C(=O)O [PKT7, H-(D)K R F Y V ψ(CONMe)V M W K (D)K-OH]
0

* * *

- System under test: CD47 (membrane preparation from MEC-1 cells) (Homo sapiens)
- Construct: MEC-1 cell membrane preparation were biotinylated with the EZ-Link NHS-PEG4-Biotin kit; endogenous in cells; host or cells: MEC-1 cells (membrane preparation)
- Sequence (Q08722 19-323): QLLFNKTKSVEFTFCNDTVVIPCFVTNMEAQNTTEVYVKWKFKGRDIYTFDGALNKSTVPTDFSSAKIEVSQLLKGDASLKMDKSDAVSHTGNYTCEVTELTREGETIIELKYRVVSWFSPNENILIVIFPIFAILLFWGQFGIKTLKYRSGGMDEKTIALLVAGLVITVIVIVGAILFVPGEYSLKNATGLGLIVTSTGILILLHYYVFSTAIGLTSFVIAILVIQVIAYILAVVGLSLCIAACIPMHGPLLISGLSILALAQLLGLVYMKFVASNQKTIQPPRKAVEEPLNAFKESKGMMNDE
- Method notes: Binding affinity by biolayer interferometry (Octet RED96) on biotinylated MEC-1 cell membrane preparation
- Conditions: Table 4, N-methyl peptides; NPD = Non Pertinent Data
- Method: The binding affinities of peptides for a membrane preparation from MEC-1 cells were measured by biolayer interferometry on an Octet RED96 System (Pall FortéBio Corp., Menlo Park, Calif.). The binding affinities of peptides for a membrane preparation from MEC-1 cells were measured by biolayer interferometry on an Octet RED96 System (Pall FortéBio Corp., Menlo Park, Calif.). […]
Measured parameter: Kd(μM)PR

CSCC[C@H](NC(=O)[C@@H](NC(=O)[C@@H](NC(=O)[C@H](Cc1ccc(O)cc1)NC(=O)[C@H](Cc1ccccc1)N(C)C(=O)[C@H](CCCNC(=N)N)NC(=O)[C@H](N)CCCCN)C(C)C)C(C)C)C(=O)N[C@@H](Cc1c[nH]c2ccccc12)C(=O)N[C@@H](CCCCN)C(=O)N[C@H](CCCCN)C(=O)O [PKT10, H-(D)K R ψ(CONMe)F Y V V M W K (D)K-OH]
NPD
